Item-by-item account of normalised inhibition (eCFP-eYFP dual reporter)
test-system: UBE2G1; further: test concentration or dose not given here
procedure-details: reporter assay of Huesken 2005
test-conditions: siRNA
Oligonucleotides are written 5' to 3', each unit as a sugar letter and its base; * is a phosphorothioate linkage, no mark a phosphodiester; rarer units and linkages stand in square brackets, end groups in braces. Plain capitals give the bases only. d = 2'-deoxy (DNA); r = 2'-OH (RNA)
value-kind: normalised inhibition (eCFP-eYFP dual reporter) (%)

[[record]]
substance = "sense rCrArArUrGrArUrCrUrCrUrArCrCrGrArUrGrGdTdT / antisense rCrCrArUrCrGrGrUrArGrArGrArUrCrArUrUrGdTdC"
recorded_measurement = 86.7

[[record]]
substance = "sense rGrCrCrCrUrCrCrArGrArUrArCrArCrUrUrUrAdTdT / antisense rUrArArArGrUrGrUrArUrCrUrGrGrArGrGrGrCdCdA"
recorded_measurement = 75.2

[[record]]
substance = "sense rCrCrArCrArCrUrGrUrGrGrArArArCrCrArUrCdTdT / antisense rGrArUrGrGrUrUrUrCrCrArCrArGrUrGrUrGrGdAdT"
recorded_measurement = 86.1

[[record]]
substance = "sense rCrUrCrUrArCrCrGrArUrGrGrGrArArGrUrCrCdTdT / antisense rGrGrArCrUrUrCrCrCrArUrCrGrGrUrArGrArGdAdT"
recorded_measurement = 68.3

[[record]]
substance = "sense rArUrCrUrCrUrArCrCrGrArUrGrGrGrArArGrUdTdT / antisense rArCrUrUrCrCrCrArUrCrGrGrUrArGrArGrArUdCdA"
recorded_measurement = 67.7

[[record]]
substance = "sense rArUrUrGrGrCrCrCrUrCrCrArGrArUrArCrArCdTdT / antisense rGrUrGrUrArUrCrUrGrGrArGrGrGrCrCrArArUdAdA"
recorded_measurement = 36.1

[[record]]
substance = "sense rUrUrUrArArArArGrArArArArGrUrUrGrCrCrCdTdT / antisense rGrGrGrCrArArCrUrUrUrUrCrUrUrUrUrArArAdTdT"
recorded_measurement = 43.5

[[record]]
substance = "sense rCrCrUrGrCrUrArArUrGrUrUrGrArUrGrCrUrGdTdT / antisense rCrArGrCrArUrCrArArCrArUrUrArGrCrArGrGdTdG"
recorded_measurement = 97.5

[[record]]
substance = "sense rUrGrGrArGrArArUrUrUrArArArArGrArArArAdTdT / antisense rUrUrUrUrCrUrUrUrUrArArArUrUrCrUrCrCrAdTdT"
recorded_measurement = 74.2

[[record]]
substance = "sense rUrCrUrGrGrCrArCrCrCrArArArUrGrUrUrGrAdTdT / antisense rUrCrArArCrArUrUrUrGrGrGrUrGrCrCrArGrAdTdT"
recorded_measurement = 73.4

[[record]]
substance = "sense rArUrGrArCrArArUrGrArUrCrUrCrUrArCrCrGdTdT / antisense rCrGrGrUrArGrArGrArUrCrArUrUrGrUrCrArUdCdT"
recorded_measurement = 40.5

[[record]]
substance = "sense rArArUrGrUrUrGrArUrGrCrUrGrCrGrArArArGdTdT / antisense rCrUrUrUrCrGrCrArGrCrArUrCrArArCrArUrUdAdG"
recorded_measurement = 93.5

